Assay: binders of probe aHhip on microarray, primary screen, stem cell growth factor project, biochemical, small-molecule microarray, fluorescence 635/667 (AID 1087);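 note: score merges spot fluorescence at 667nm with spot signal to noise ratio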
Conditions: higher = more signal
Tag: YES if measured composite z-score is not below -0.02, NO if it is.

The examples below pair each entry with its known result.
COCCOC(=O)N1C(=O)[C@@]2(c3cc(C#CCCO)ccc31)[C@H](c1ccccc1OCCO)N1[C@H](c3ccccc3)[C@H](c3ccccc3)OC(=O)[C@H]1[C@@H]2C(=O)N1CCc2cc(OC)c(OC)cc2C1 : YES
O=C1C2C=CC(C(O)c3cccc(O)c3)N(Nc3ccccc3F)C2C(=O)N1c1ccccc1 (configuration not stated) : NO

Problem: Textbook exercise: given the entry `CCCC[C@H]1OB(O)C[C@H]2C1=C(C)C[C@H]1C(=O)C=CC(=O)[C@H]12` , state whether its composite z-score is greater than or equal to -0.02.
Result: YES

Problem: Thanks! And `O=C1O[C@@H](c2ccccc2)[C@@H](c2ccccc2)N2[C@@H](c3ccc(O)cc3)[C@]3(C(=O)Nc4ccc(C#CC5=CCCCC5)cc43)[C@@H](C(=O)N3CCCCCCC3)[C@H]12` ?
Result: YES

Problem: Next record, please: `C=C(/C(=C/C[C@@H](OC(C)=O)c1ccccc1OCCO)c1cc(C(=O)OC)ccc1OC)C(C)C`
Result: NO

Reference source for all entries: PubChem BioAssay
